# Test system: MCF7 breast
# protocol: NCI tumour cell line growth inhibition, 48 h; in the data active = GI50 below about 0.43 µM; inactive = the rest
Labels: 1 = active, -1 = inactive

| compound | categoryLabel |
| --- | --- |
| Cc1ccc(C(CC(=O)c2ccccc2)C(C(=O)c2ccccc2)C(c2ccc(C)cc2)C2C(=O)NC(=S)NC2=O)cc1 (configuration not stated) | -1 |
| O=C(OC(CNc1c(C(=O)c2ccccc2)c(=O)n(Cc2ccccc2)c(=O)n1Cc1ccccc1)CN1CCCCC1)c1ccccc1 (configuration not stated) | -1 |
| CC(=O)Nc1ccc(S(=O)(=O)c2ccc(NC(C)=O)cc2)cc1 | -1 |
| N#C/C(=C\c1ccc([N+](=O)[O-])s1)c1nc2cc(Br)ccc2s1 | 1 |
| CC#CC(=O)N[C@H]1CCCN(c2c(F)cc(C(N)=O)c3[nH]c(C)c(C)c23)C1 | -1 |
| CN1CCN(CCCN2c3ccccc3Sc3ccc(C(F)(F)F)cc32)CC1 | -1 |
| Cc1cccc2c1ccc1c3occ(C)c3c(=O)oc21 | -1 |
| O=C1C(Cl)=C(Nc2ccccn2)C(=O)c2ccccc21 | -1 |
| CCCC(=O)Nc1ncnc2c1ncn2C1OC2COP(=O)(O)OC2C1OC(=O)CCC (configuration not stated) | -1 |
| Cc1csc(-c2ccc3c(c2)COC3(CCCN(C)C)c2ccc(F)cc2)c1 (configuration not stated) | -1 |
| CCNC(=O)c1ccc2c(c1)nc(-c1ccc(Cl)cc1)n2-c1cc(C(C)(C)C)[nH]n1 | -1 |
| COc1cc(/C=N/Nc2ncnc3c2cnn3Cc2ccccc2)ccc1O | -1 |
| Nc1ncnc2c1c(C(=O)NO)cn2C1OC(CO)C(O)C1O (configuration not stated) | 1 |
| COc1ccc(C(=O)c2cc(OC)c(OC)c(OC)c2)cc1/C=C/C(=O)c1ccc2c(c1)OCO2 | 1 |
| C=CCCC(O)c1ccc(CCCCCCCCCCC)o1 (configuration not stated) | -1 |
| [O]=[W](=[O])([OH])[OH] | -1 |
| O=C1C(Cl)=C(Nc2cccc(O)c2)C(=O)N1c1ccc(Cl)cc1Cl | -1 |

====

# Test system: SW-620 colon
# protocol: NCI tumour cell line growth inhibition, 48 h
measurementKind: TGI

| compound | systemUnderTest | measurementKind | observedMeasurement |
| --- | --- | --- | --- |
| COc1cc(/C=N/Nc2ncnc3c2cnn3Cc2ccccc2)ccc1O | SW-620 colon | TGI | > 25 µM |
| O=C(Oc1ccc(OC(Oc2ccccc2)c2ccccc2)cc1)c1ccccc1 (stereo unspecified) | SW-620 colon | TGI | > 31.6 µM |
| O=C(/C=C/c1cccs1)c1ccc(Cl)s1 | SW-620 colon | TGI | 51.7 µM |
| COc1cc(O)c2c(c1O)C(=O)c1cc(C)ncc1C2=O | SW-620 colon | TGI | > 50 µM |
| OCCN1CCN(c2nc(Nc3ccc(-c4nc5ccccc5[nH]4)cc3)c3cn[nH]c3n2)CC1 | SW-620 colon | TGI | 1.87 µM |
| C=CCN(c1cc(OCc2ccccc2)c2c(c1)c(C)cn2S(=O)(=O)c1ccccc1)S(C)(=O)=O | SW-620 colon | TGI | > 100 µM |
| COc1ccc(N2C(=O)C3c4[nH]c5cc(Cl)ccc5c4C4CCC(C(C)(C)C)CC4C3C2=O)cc1 (stereo unspecified) | SW-620 colon | TGI | > 100 µM |
| Cc1ccc(C(O)/C(=N/N)c2nc3ccc([N+](=O)[O-])cc3[nH]c2=O)cc1 (stereo unspecified) | SW-620 colon | TGI | > 100 µM |
| Cc1cn(CCCCOC(=O)NC(CCCNC(N)=O)C(=O)O)c(=O)[nH]c1=O (stereo unspecified) | SW-620 colon | TGI | > 100 µM |
| O=C1CCCC(=O)C1C(=O)c1ccc(C(F)(F)F)cc1[N+](=O)[O-] | SW-620 colon | TGI | > 100 µM |
| CC(=O)OC1CC(C)c2c(Cl)ncnc21 (stereo unspecified) | SW-620 colon | TGI | > 100 µM |
| COc1ccc2c(c1)c(-c1nc(-c3cn(C)c4ncccc34)cs1)cn2CCCCN1CCOCC1 | SW-620 colon | TGI | 1.92 µM |
| CNc1ccc(C(=O)CC(O)CCC(C)C2OC(=O)CC(O)CC(=O)CC(O)CC(O)CC(O)CC(O)CC3(O)CC(O)C(C(=O)NCCc4ccccn4)C(CC(OC4OC(C)C(O)C(N)C4O)/C=C/C=C/C=C/C=C\C=C/C=C/C=C/C2C)O3)cc1 (stereo unspecified) | SW-620 colon | TGI | > 50 µM |
| CCCC(=O)[O-].CCCC(=O)[O-].N.N.N.N.[Co+3].[O-][Cl+3]([O-])([O-])[O-] | SW-620 colon | TGI | > 100 µM |
| Cc1ccc(S(=O)(=O)NC(=O)C#CCOC2CCCCO2)cc1 (stereo unspecified) | SW-620 colon | TGI | > 100 µM |
| CCOC(=O)NN(C(=O)OCC)C(C(=O)c1ccc(Cl)cc1)=C1NCCN1 | SW-620 colon | TGI | > 100 µM |
| CCOc1ccc(N=Nc2c(-c3ccccc3)nn(C(=O)CC(=O)Nc3cccc(C)c3)c2-c2ccccc2)cc1 | SW-620 colon | TGI | > 100 µM |
| COc1ccc(NC(=O)CC(=O)n2nc(-c3ccccc3)c(N=Nc3ccccc3C)c2-c2ccccc2)cc1 | SW-620 colon | TGI | > 62.3 µM |
| Nc1ccc(-c2nc3ccccc3s2)cc1F | SW-620 colon | TGI | > 100 µM |
| COc1cccc2cc(-c3nc(C4CCC(C(=O)O)CC4)n4ncnc(N)c34)[nH]c12 (stereo unspecified) | SW-620 colon | TGI | > 100 µM |
| Cc1cccc2c(N)c3cccc(C(=O)NCCN4CCOCC4)c3nc12 | SW-620 colon | TGI | 26.1 µM |
| Cc1cn(C2CC(N=[N+]=[N-])C(CO)O2)c(=O)n(CCCCO)c1=O (stereo unspecified) | SW-620 colon | TGI | > 100 µM |
| N#Cc1nc(C2SCCCS2)oc1N | SW-620 colon | TGI | > 100 µM |
| COC(=O)C(CCSc1ccccc1)C(=O)OC | SW-620 colon | TGI | > 100 µM |
| C[C@]12CC/C(=N\OC(=O)Nc3ccccc3)C=C1CC[C@@H]1C2CC[C@@]2(C)C1CC[C@@H]2OC(=O)Nc1ccccc1 (stereo partly specified) | SW-620 colon | TGI | > 100 µM |
| CCOC(=O)c1nc2cc(C(F)(F)F)ccc2nc1Oc1ccc(C(=O)OC)cc1 | SW-620 colon | TGI | > 100 µM |
| COc1cc2c3c(c1OCc1ccccc1)NCCC3NCC2 (stereo unspecified) | SW-620 colon | TGI | > 100 µM |
| Nc1nc(NCC2(CO)CC(CCc3ccccc3)C2)cc(=O)[nH]1 (stereo unspecified) | SW-620 colon | TGI | > 100 µM |
| COc1cc([N+](=O)[O-])c(OC)cc1-c1nc2n(c1/C(N)=N/C(=N)N)CCS2 | SW-620 colon | TGI | > 100 µM |
| COc1cccc(N2C(=O)[C@H]3[C@H]4CC(C(C)(C)C)CC[C@H]4c4c([nH]c5ccccc45)[C@H]3C2=O)c1 (stereo partly specified) | SW-620 colon | TGI | 41 µM |
| CCc1cccc(CC)c1NC(=O)c1ccn2c1CCc1cnc(Nc3ccc(N4CCN(C)CC4)cc3OC)nc1-2 | SW-620 colon | TGI | 5.94 µM |
| COc1ccc2[nH]cc(CN3CCC(CO)(c4ccccc4)CC3)c2c1 | SW-620 colon | TGI | 47.8 µM |
| O=c1[nH]cnc2c1ncn2C1SC(CO)C(O)C1O (stereo unspecified) | SW-620 colon | TGI | > 100 µM |
| C/C=C1\C[C@@H]2C(OC)Nc3cc(O)c(OC)cc3C(=O)N2C1 (stereo partly specified) | SW-620 colon | TGI | 36.8 µM |
| O=c1c2ccccc2n2n1Cc1ccccc1C2 | SW-620 colon | TGI | > 100 µM |
| O=C1C=C(NCCc2cc(Cl)c(O)c(Cl)c2)C(=O)c2[nH]cnc21 | SW-620 colon | TGI | > 100 µM |
